Source listed as patent US20250011311A1.

# TARGET_UNDER_TEST: human CB1 receptor expressed in transfected CHO cells (Homo sapiens (Human), UniProt P21554)
# Sequence (P21554 whole entry): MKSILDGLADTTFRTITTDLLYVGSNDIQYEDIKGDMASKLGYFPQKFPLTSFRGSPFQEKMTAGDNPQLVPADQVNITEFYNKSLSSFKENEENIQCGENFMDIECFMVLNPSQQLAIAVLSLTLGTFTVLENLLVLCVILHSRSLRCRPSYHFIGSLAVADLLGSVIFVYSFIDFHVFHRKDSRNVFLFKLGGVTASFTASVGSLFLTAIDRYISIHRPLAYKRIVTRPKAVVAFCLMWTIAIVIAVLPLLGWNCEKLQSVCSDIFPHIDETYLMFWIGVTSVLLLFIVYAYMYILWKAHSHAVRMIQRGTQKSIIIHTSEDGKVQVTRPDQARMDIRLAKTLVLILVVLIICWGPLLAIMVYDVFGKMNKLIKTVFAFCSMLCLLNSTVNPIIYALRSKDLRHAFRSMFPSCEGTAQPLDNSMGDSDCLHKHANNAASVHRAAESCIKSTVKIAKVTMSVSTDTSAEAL
# ASSAY_NAME: Assay C: CB1 Agonism Assay
# ASSAY_CONDITIONS: agonist activity, cAMP HTRF, read-out: Assay C: CB1 Hu CHO cAMP TRF Ag CR GMean EC50
# EC50 listing for each entry below
Write the number in µM without appending the unit.

| MOLECULE | ASSAY_VALUE |
| --- | --- |
| N#Cc1ccc2c(c1)CN(C(=O)c1noc(-c3cc(F)c(F)c(O)c3F)n1)CC2 [Example 86] | 5.7 |
| CC1CN(C(=O)c2noc(-c3cc(F)c(F)c(O)c3F)n2)CC(C)(C)O1 (centres unmarked) [Example 117] | 0.5 |
| CC(C)[C@H]1CN(C(=O)c2noc(-c3cc(F)c(F)c(O)c3F)n2)C[C@@H](C)O1 (racemic) [Example 122] | 22.3 |
| C[C@@H]1CN(C(=O)c2cnc(-c3cc(F)c(F)c(O)c3F)s2)C[C@H](C)O1 [Example 120] | 8.5 |
| O=C(c1noc(-c2ccc(F)c(O)c2)n1)N1CC[C@H](c2ccccc2)C1 [Example 11] | 3.1 |
| O=C(c1noc(-c2cc(F)c(F)c(O)c2F)n1)N1CCO[C@@H]2CCC[C@@H]21 [Example 113] | 0.4 |
| COc1ccccc1C1CCN(C(=O)c2noc(-c3cc(F)c(F)c(O)c3F)n2)C1 (centres unmarked) [Example 4] | 1.9 |
| C[C@@H]1CN(C(=O)c2noc(-c3cc(F)c(F)c(O)c3F)n2)C[C@H](C)O1 [Example 87] | 46 |

Query: Reported EC50, molecule N#Cc1cccc(C2CN(C(=O)c3noc(-c4cc(F)c(F)c(O)c4F)n3)C2)c1 [Example 85] : ____
Reply: 9.3

Query: Next molecule up: O=C(c1noc(-c2cc(F)c(F)c(O)c2F)n1)N1CCO[C@@H]2CCC[C@H]21 [Example 114]
Reply: 60.5

Query: Let us now turn to C[C@@H]1C[C@H](C)CN(C(=O)c2noc(-c3cc(F)c(F)c(O)c3F)n2)C1 [Example 37]
Reply: 2.5

Query: // next record N#Cc1cccc2c1CCN(C(=O)c1noc(-c3cc(F)c(F)c(O)c3F)n1)C2 [Example 66]
Reply: 3.2

Query: // repeat for C[C@@H]1C[C@H](C)CN(C(=O)c2nc(-c3cc(F)c(F)c(O)c3F)no2)C1 [Example 111] and report
Reply: 3.4

---

# TARGET_UNDER_TEST: over expressed HSD17β13 in HEK293S cells (Homo sapiens (Human))
# Sequence (Q7Z5P4 20-300): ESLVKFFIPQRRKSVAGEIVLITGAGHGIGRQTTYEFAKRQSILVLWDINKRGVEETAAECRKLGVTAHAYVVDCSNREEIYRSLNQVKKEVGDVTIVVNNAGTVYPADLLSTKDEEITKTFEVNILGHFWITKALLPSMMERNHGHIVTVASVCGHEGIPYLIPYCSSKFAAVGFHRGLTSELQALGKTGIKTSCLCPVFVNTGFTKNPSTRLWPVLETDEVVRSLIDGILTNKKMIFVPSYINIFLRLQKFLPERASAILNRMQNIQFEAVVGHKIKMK
# ASSAY_NAME: In Vitro 17bHSD13 Cell Assay
# Type: cell-based
# ASSAY_CONDITIONS: HEK293S cells over expressing HSD17β13; estradiol to estrone conversion, 18 h, LC-MS/MS; read-out: 17bHSD1713 Cell assay IC50
# maps each entry to its pIC50
Please treat pIC50 as minus the base-10 logarithm of the molar concentration.

Before answering, review these 10 worked examples.
| COMPOUND | pIC50 |
| --- | --- |
| CC1CN(C(=O)c2noc(-c3cc(F)c(F)c(O)c3F)n2)CC2(CCC2)O1 (racemic) | 7.10 |
| N#Cc1cccc2c1CCN(C(=O)c1noc(-c3cc(F)c(F)c(O)c3F)n1)C2 | 6.60 |
| N#Cc1cccc2c1CCN(C(=O)c1noc(-c3c(F)c(O)c(F)c(F)c3Br)n1)C2 | 5.60 |
| N#Cc1c(C(=O)N2CCN(c3nc4ccccc4o3)CC2)noc1-c1cc(F)c(F)c(O)c1F | 6.03 |
| COc1ccc(OC2CCN(C(=O)c3noc(-c4cc(F)c(F)c(O)c4F)c3C#N)CC2)nc1 | 6.09 |
| O=C(c1noc(-c2cc(F)c(F)c(O)c2F)n1)N1CC[C@@H](c2ccc(Cl)cc2)C1 | 6.28 |
| N#Cc1c(C(=O)N2CCC(O)(C(F)(F)F)CC2)noc1-c1cc(F)c(F)c(O)c1F | 5.53 |
| C[C@@H]1CCN(C(=O)c2noc(-c3cc(F)c(F)c(O)c3F)n2)CCO1 | 5.57 |
| CN(C(=O)c1noc(-c2ccc(F)c(O)c2)n1)c1nnnn1-c1ccccc1 | 5.81 |
| C[C@@H]1CN(C(=O)c2ccc(-c3cc(F)c(F)c(O)c3F)s2)C[C@H](C)O1 | 7.52 |

Query: Name the recorded pIC50 for CCCC1CCN(C(=O)c2noc(-c3cc(F)c(F)c(O)c3F)n2)C1 (stereo not drawn) .
Reply: 6.85

Query: Then what about the compound C[C@H]1CN(C(=O)c2noc(-c3cc(F)c(F)c(O)c3F)n2)C[C@H](C)O1 ?
Reply: 6.82

Query: Please answer likewise for N#Cc1ccccc1N1CCN(C(=O)c2noc(-c3cc(F)c(F)c(O)c3F)n2)CC1
Reply: 6.35

Query: Next: N#Cc1c(C(=O)N2CCN(CCCOc3ccc(F)cc3)CC2)noc1-c1cc(F)c(F)c(O)c1F
Reply: 6.59

Query: Same thing, different compound: O=C(c1cc(-c2ccc(F)c(O)c2)on1)N1CC[C@H](c2ccccc2)C1
Reply: 6.38

Query: Would you kindly repeat that for COc1cccc(N2CCN(C(=O)c3noc(-c4cc(F)c(F)c(O)c4F)n3)CC2)c1 ?
Reply: 6.14

Query: Same lookup for N#Cc1ccc(C2CCN(C(=O)c3noc(-c4cc(F)c(F)c(O)c4F)n3)CC2)cc1 , please.
Reply: 5.87

Query: Also O=C(c1noc(-c2cc(F)c(F)c(O)c2F)n1)N1CC[C@H](c2ccc(Cl)cc2)C1 , if possible.
Reply: 6.68

---

# TARGET_UNDER_TEST: recombinant 17bHSD13 (N2-K300) (Homo sapiens (Human), UniProt Q7Z5P4)
# Sequence (Q7Z5P4 2-300): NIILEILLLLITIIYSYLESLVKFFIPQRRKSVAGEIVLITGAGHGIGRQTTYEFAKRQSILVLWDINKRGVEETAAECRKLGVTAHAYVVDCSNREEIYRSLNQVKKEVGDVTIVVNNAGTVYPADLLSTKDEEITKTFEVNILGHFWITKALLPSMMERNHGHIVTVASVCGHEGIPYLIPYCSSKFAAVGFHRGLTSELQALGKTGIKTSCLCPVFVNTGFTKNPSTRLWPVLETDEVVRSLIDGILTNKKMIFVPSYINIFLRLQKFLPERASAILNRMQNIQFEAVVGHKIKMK
# ASSAY_NAME: In Vitro 17bHSD13 Enzyme Assay
# ASSAY_CONDITIONS: 80 nM 17bHSD13, 0.5 mM NAD, 20 μM Estradiol, 2.5 h; estradiol to estrone by LC-MS/MS
# log10 IC50 values compiled below
Lab note - IC50 converted to log10 from values in nM.

Query: What log10 IC50 value was documented for this compound, N#Cc1ccc(N2CCN(C(=O)c3noc(-c4cc(F)c(F)c(O)c4F)n3)CC2)cc1 ?
Reply: 2.01

---

# Test system: human hepatocytes
# ASSAY_NAME: Assay A: Metabolic Stability in Human Hepatocytes
# Assay type: in vitro ADME
# ASSAY_CONDITIONS: cryopreserved human hepatocytes, 10^6 viable cells/mL, 1 μM compound, 37° C.
Reported Assay A: Human Heps Met Clint GMean CLint (μl/min/1E6) values for a set of compounds
Respond numerically; units are μl/min/1E6 and should not be typed.

Look over these answered cases.
| COMPOUND | SCALE_UNIT | ASSAY_VALUE |
| --- | --- | --- |
| CC1CN(C(=O)c2noc(-c3cc(F)c(F)c(O)c3F)n2)CC(C)(C)O1 (centres unmarked) | μl/min/1E6 | 4.2 |
| O=C(c1noc(-c2cc(F)c(F)c(O)c2F)n1)N1CCN(CCCOc2ccc(F)cc2)CC1 | μl/min/1E6 | 9.5 |
| N#Cc1ccccc1N1CCN(C(=O)c2noc(-c3cc(F)c(F)c(O)c3F)n2)CC1 | μl/min/1E6 | 15.4 |

Okay, now this compound:
Query: Recorded Assay A: Human Heps Met Clint GMean CLint (μl/min/1E6) for N#Cc1ccc(N2CCN(C(=O)c3noc(-c4cc(F)c(F)c(O)c4F)n3)CC2)cc1 , please?
Reply: 11.8

---

# TARGET_UNDER_TEST: over expressed HSD17β13 in HEK293S cells (Homo sapiens (Human))
# ASSAY_NAME: In Vitro 17bHSD13 Cell Assay
# Type: cell-based
# ASSAY_CONDITIONS: HEK293S cells over expressing HSD17β13; estradiol to estrone conversion, 18 h, LC-MS/MS; read-out: 17bHSD1713 Cell assay IC50
PROPERTY: IC50
The reply should read as a number followed by its unit.

For orientation, consider the following solved cases.
| MOLECULE | TARGET_UNDER_TEST | IC50 |
| --- | --- | --- |
| O=C(c1noc(-c2cc(F)c(F)c(O)c2F)n1)N1CCO[C@H]2CCC[C@@H]21 | over expressed HSD17β13 in HEK293S cells (Homo sapiens (Human)) | 100 nM |
| O=C(c1noc(-c2cc(F)c(F)c(O)c2F)n1)N1CCc2ccccc2C1 | over expressed HSD17β13 in HEK293S cells (Homo sapiens (Human)) | 270 nM |
| N#Cc1c(C(=O)N2CC(F)(C3CC3)C2)noc1-c1cc(F)c(F)c(O)c1F | over expressed HSD17β13 in HEK293S cells (Homo sapiens (Human)) | 4090 nM |
| O=C(c1noc(-c2cc(F)c(F)c(O)c2F)n1)N1CCN(c2ccccc2)CC1 | over expressed HSD17β13 in HEK293S cells (Homo sapiens (Human)) | 410 nM |

Query: Returns the measured IC50 for the input molecule. Input: O=C(c1noc(-c2cc(F)c(F)c(O)c2F)n1)N1CCO[C@H](C(F)(F)F)C1
Reply: 370 nM

Query: // same read-out, input: O=C(c1noc(-c2cc(F)c(F)c(O)c2F)n1)N1CCO[C@@H](CF)C1
Reply: 540 nM

Query: Entry N#Cc1c(C(=O)N2CCC(n3cc(-c4ccc(F)cc4)[nH]c3=O)CC2)noc1-c1cc(F)c(F)c(O)c1F please
Reply: 3500 nM
